system: SN12C renal; assay: NCI-60 one-dose screen, 48 h (100 = growth as untreated, 0 = no growth, -100 = all killed); details: 10 µM unless noted
This is part of a sample that, as a whole, favours compounds with a hit. Of some 83,000 tested, about 20% had one in any assay. Activity calls are given as the source filed them. Rule for the calls: active = growth percent below 10; inactive = the rest.
MEASUREMENT KIND: growth

The cases that follow already have their growth on record.
[
  {
    "MOLECULE": "CN1CCN(Cc2ccc3c(NNC(=O)c4ccccc4)nc4cc(F)ccc4n23)CC1",
    "growth": "17.2% (inactive)"
  },
  {
    "MOLECULE": "Oc1c(Cl)cc(Cl)cc1/C=N/Nc1nnc(N/N=C/c2cc(Cl)cc(Cl)c2O)c2ccccc12",
    "growth": "20% (inactive)"
  },
  {
    "MOLECULE": "CCCCN[C@H]1CC[C@@]2(C)[C@@H](CC[C@@]3(C)[C@H]2[C@H](O)C[C@H]2/C(=C(\\CCC=C(C)C)C(=O)OC)[C@@H](OC(C)=O)C[C@@]23C)[C@@H]1C",
    "growth": "94.6% (inactive)"
  },
  {
    "MOLECULE": "O=C1Nc2ccc(Br)cc2/C1=N/c1n[nH]c(=S)s1",
    "growth": "96.6% (inactive)"
  },
  {
    "MOLECULE": "O=C(CSc1nc2sc3c(c2c(=O)n1-c1ccccc1)CCCCC3)N/N=C/c1ccc(F)cc1",
    "growth": "16.3% (inactive)"
  }
]

Here are 8 molecules. What values of growth were reported for them?
1. CCc1n(Cc2ccc3ccccc3c2)cc[n+]1Cc1ccc2ccccc2c1
2. OB(O)c1cccc(-c2nc3ccc4[nH]ncc4c3c3c2CCCC3)c1
3. O=C1/C(=C/c2ccc(Cl)cc2)COc2ccc(O)cc21
4. CCCCC(=O)Nc1ncc(Cc2ccc(Cl)cc2)s1
5. N#CC1CCc2c(c(-c3cn[nH]c3C(F)(F)F)nc3c(F)cc4[nH]ncc4c23)C1 (stereo not drawn)
6. Cc1ccc(-n2c(=S)[nH]c3sc4c(c3c2=O)CCC(=O)C4)cc1
7. O=C(Nc1cccnc1Nc1ccc(F)cc1)c1cn(Cc2cccc(Oc3ccccc3)c2)nn1
8. O=C1c2ccc3c4ccc5c6c(ccc(c7ccc(c2c37)C(=O)N1CCC[P+](c1ccccc1)(c1ccccc1)c1ccccc1)c64)C(=O)N(CCC[P+](c1ccccc1)(c1ccccc1)c1ccccc1)C5=O

Output:
["6.37% (active)", "48.8% (inactive)", "69% (inactive)", "74.6% (inactive)", "25.7% (inactive)", "40.3% (inactive)", "79.2% (inactive)", "70.5% (inactive)"]

State recorded growth for all listed molecules.
1. CCCCOC(=O)OCc1cc(=O)c(O)co1
2. CCOC(=O)C(=Cc1cccc(Br)c1)C(=O)OCC
3. Cc1ccc(-c2nn(-c3ccccc3)cc2C=C2C(=O)ON=C2C(C)C)cc1
4. COc1cccc(/C=C/C(=O)c2cc3c(N)c(C(=O)Nc4ccccc4)sc3nc2C)c1
5. OCCCC1CCN(C(Cc2ccccc2)c2ccccc2)CC1 (stereo not drawn)
6. Cc1nc2c(=O)[nH]c(SCC(=O)Nc3cccc(F)c3)nc2[nH]c1=O

Output:
["99.2% (inactive)", "34.8% (inactive)", "75.9% (inactive)", "8.27% (active)", "102% (inactive)", "100% (inactive)"]

// for each molecule in input: emit growth
1. COc1ccc2cc(C(=O)c3coc4ccc(O)cc34)ccc2c1
2. CN(C)C1CCN(Cc2ccc(NC(=O)c3cncc(C#Cc4cnc(N)c5ncccc45)c3)cc2C(F)(F)F)CC1
3. Brc1ccc(-n2cc(-c3nn[nH]n3)c(-c3cccs3)n2)cc1
4. C=C(C)[C@@H]1CC[C@]2(C)[C@H](CC=C3[C@@H]4[C@H](C)[C@@H](C)CC[C@]4(CO)CC[C@]32C)[C@@]1(C)CCCN

Output:
98.8% (inactive)
93.1% (inactive)
88.9% (inactive)
-4.38% (active)

----------
system: MDA-MB-231 breast; experiment: NCI-60 one-dose screen, 48 h (100 = growth as untreated, 0 = no growth, -100 = all killed); conditions: 10 µM unless noted
This is part of a sample that, as a whole, favours compounds with a hit. Of some 83,000 tested, about 20% had one in any assay.
Threshold rule: growth greater than or equal to 40% is Met; below that, Not met.

Answered examples (4):
[
  {
    "COMPOUND": "O=C(c1ccc(Cl)cc1)N1CCN(c2ccnc3cc(Cl)ccc23)CC1",
    "QUALITATIVE LABEL": "Met"
  },
  {
    "COMPOUND": "COc1ccc(-c2nc3c(c(-c4ccccc4)nn3-c3ccccc3)c(-c3ccc(N4CCOCC4)cc3)c2C#N)cc1",
    "QUALITATIVE LABEL": "Met"
  },
  {
    "COMPOUND": "N#CC1CCc2c(c(-c3cn[nH]c3C(F)(F)F)nc3c(F)cc4[nH]ncc4c23)C1 (stereo unspecified)",
    "QUALITATIVE LABEL": "Not met"
  },
  {
    "COMPOUND": "O=C1Nc2ccccc2/C1=C\\c1nc(-c2ccccc2F)n2ccccc12",
    "QUALITATIVE LABEL": "Not met"
  }
]

Input: Given the entry CO/N=C(/C)c1ccc(NC(=O)CSc2nnc(-c3ccncc3)n2-c2ccccc2)cc1 , answer whether its growth meets or surpasses 40%.
Output: Met

Input: Param item: CCCCC(=O)c1ccco1
Output: Met

----------
Tested on: SK-MEL-5 melanoma
Experiment: NCI-60 one-dose screen, 48 h (100 = growth as untreated, 0 = no growth, -100 = all killed)
Settings: 10 µM unless noted
Method: Growth inhibition of the SK-MEL-5 human tumor cell line is measured as a screen for anti-cancer activity. Cells are grown in 96 well plates and exposed to the test compound for 48 hours. Compounds are tested at a single concentration, which is 10^-5 M for most compounds. The reported endpoint is percent growth (GI% or GIPRCNT), where numbers from 0 - 100% represent growth inhibition, and numbers from -100% - 0 represent cell death. For example, a value of 40 represents 60% growth inhibition. […]
About 83,000 compounds went through this panel and 20% of them were active in at least one assay; those are over-represented in the sample as a whole. The source made the active and inactive calls. The calls were made as follows: active = growth percent below 10; inactive = the rest.
For each record, write down the corresponding growth.

[
  {
    "SMILES STRUCTURE": "N#Cc1cccc(F)c1",
    "growth": "107% (inactive)"
  },
  {
    "SMILES STRUCTURE": "CS(=O)(=O)C1=CN(CCO)C(=O)N2CCCN=C12",
    "growth": "97.7% (inactive)"
  },
  {
    "SMILES STRUCTURE": "CN([O-])c1nc(N(C)[O-])nc(N2CCOCC2)n1.CN([O-])c1nc(N(C)[OH2+])nc(N2CCOCC2)n1.[Fe+3]",
    "growth": "95.5% [100 µM] (inactive)"
  },
  {
    "SMILES STRUCTURE": "O=C(/C=C/c1cn(-c2ccccc2)nc1-c1ccc([N+](=O)[O-])cc1)c1ccc(Cl)cc1",
    "growth": "71.5% (inactive)"
  },
  {
    "SMILES STRUCTURE": "O=C1c2c(c3c4ccccc4[nH]c3c3ccc4ccccc4c23)C(=O)N1CCN1CCCCC1",
    "growth": "55.4% (inactive)"
  },
  {
    "SMILES STRUCTURE": "CCN(CC)c1ccc(/C=C/C(=O)c2ccc(Nc3nc(Nc4ccccc4)nc(Nc4ccccc4)n3)cc2)cc1",
    "growth": "40.7% (inactive)"
  }
]

Proceed to the following item.
Input: So what does the record say about growth for O=[N+]([O-])/C(=C/C=C/c1ccccc1)c1ccccc1 ?
Output: 82.4% (inactive)

----------
tested on: HS 578T breast; assay: NCI-60 one-dose screen, 48 h (100 = growth as untreated, 0 = no growth, -100 = all killed); details: 10 µM unless noted
This is part of a sample that, as a whole, favours compounds with a hit. Of some 83,000 tested, about 20% had one in any assay.
Returns rule met if the recorded growth is greater than or equal to 80%, and rule not met otherwise.

Solved entries (count: 10):
[
  {
    "MOLECULE": "Cc1cc2c(O)c(-c3cc(Cl)ccc3Cl)c3sc(=O)oc3c2cc1C",
    "MEASURED TARGET": "HS 578T breast",
    "QUALITATIVE LABEL": "rule not met"
  },
  {
    "MOLECULE": "CC(=O)Nc1nc2ccc(NS(=O)(=O)c3cccc4c(N(C)C)cccc34)cc2[nH]1",
    "MEASURED TARGET": "HS 578T breast",
    "QUALITATIVE LABEL": "rule not met"
  },
  {
    "MOLECULE": "COc1ccc(-c2nc(SCC(C)C)nc(N/N=C\\c3ccc(F)cc3)c2C#N)cc1",
    "MEASURED TARGET": "HS 578T breast",
    "QUALITATIVE LABEL": "rule not met"
  },
  {
    "MOLECULE": "CC[C@@H](C(=O)[C@@H](C)[C@@H](O)[C@H](C)[C@@H]1O[C@@H]([C@@H](CC)C(=O)NCCc2ccc(F)cc2)CC[C@@H]1C)C1O[C@]2(C=CC(=O)[C@]3(CC[C@@](C)([C@H]4CC[C@](O)(CC)[C@H](C)O4)O3)O2)[C@H](C)C[C@@H]1C (stereo partly specified)",
    "MEASURED TARGET": "HS 578T breast",
    "QUALITATIVE LABEL": "rule not met"
  },
  {
    "MOLECULE": "O=C1CC(N2C(=O)/C(=C/C(Cl)=C\\c3ccc([N+](=O)[O-])cc3)SC2=S)C(=O)N1c1ccc(Cl)cc1 (stereo unspecified)",
    "MEASURED TARGET": "HS 578T breast",
    "QUALITATIVE LABEL": "rule not met"
  },
  {
    "MOLECULE": "CCOC(=O)c1cc2c(=O)oc3ccccc3c2oc1=O",
    "MEASURED TARGET": "HS 578T breast",
    "QUALITATIVE LABEL": "rule met"
  },
  {
    "MOLECULE": "Cc1ccc(Cc2cnc(NC(=O)c3cc(Br)cs3)s2)cc1",
    "MEASURED TARGET": "HS 578T breast",
    "QUALITATIVE LABEL": "rule not met"
  },
  {
    "MOLECULE": "CCCCC(=O)c1ccco1",
    "MEASURED TARGET": "HS 578T breast",
    "QUALITATIVE LABEL": "rule met"
  },
  {
    "MOLECULE": "CC1(C)c2[nH]c3ccccc3c2C[C@]2(C)[C@H]3CC=C4[C@@H]5C[C@@](C)(C(N)=O)CC[C@]5(C)CC[C@@]4(C)[C@]3(C)CC[C@@H]12",
    "MEASURED TARGET": "HS 578T breast",
    "QUALITATIVE LABEL": "rule met"
  },
  {
    "MOLECULE": "Cc1ccc(Cl)cc1Nc1nc(C(F)(F)F)ccc1C(=O)N/N=C/c1cccnc1",
    "MEASURED TARGET": "HS 578T breast",
    "QUALITATIVE LABEL": "rule not met"
  }
]

Input: # check: growth of O=S(=O)(NCCNc1cc(-c2c(-c3cccc(O)c3)nc3sccn23)ccn1)c1ccc(C(F)(F)F)cc1 is greater than or equal to 80%
Output: rule not met

Input: Next record, please: N#Cc1c(-c2ccccc2)cc(-c2ccccc2)n(CCCCCC(=O)Nc2ccccc2N)c1=O
Output: rule not met
